system: SIK2; details: concentration: 1 μM, replicates: in singlicate; n = 1;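 note: KINOMEscan kinase panel screen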
PROPERTY: %Inh (%)
One number for each entry, in %.

Completed entries (count: 3):
Cc1ccc(NC(=O)c2cccc(N3CCCCC3)c2)cc1-c1ccc(C(=O)NCC2CC2)cc1 [GSK1917008]    93.3
O=C(Nc1n[nH]c2cc(-c3cccs3)ccc12)C1CC1 [SB-731284]    0
COc1cc(Nc2nccc(N3CCC(NS(=O)(=O)c4ccc(NC(C)=O)cc4)CC3)n2)cc(OC)c1OC [GSK1379825]    61

**Query** May I ask what %Inh has been recorded for CN(C)CCOc1ccc(-c2cc(-c3ccc(Cl)c(O)c3)c(-c3ccncc3)[nH]2)cc1.Cl.Cl [SB-684387] ?
**Result** 27
